assay: Pharmacokinetics and tissue distribution in nude mice; assay type: in vivo; conditions: female, nude (nu/nu), mouse, spleen, IP 10 mg/kg
quantity_kind: AUC
Answer by giving the amount and then stating its unit.

Given item `O=C1C(NCc2ccccc2)=CC2=NCCc3c[nH]c1c32` , the value recorded as its AUC is 18300 ng·h/mL

###

experiment: Pharmacokinetics and tissue distribution in CD-1 mice; type: in vivo; details: female, mouse, spleen, IV 5 mg/kg
quantity_kind: clearance (mL/min/kg)
All answers are understood in mL/min/kg, so give the number only.

Given item `O=C1C(NCc2ccccc2)=CC2=NCCc3c[nH]c1c32` , the value recorded as its clearance is 317

###

experiment: Pharmacokinetics and tissue distribution in nude mice; assay type: in vivo; conditions: female, nude (nu/nu), mouse, spleen, IV 5 mg/kg
quantity_kind: clearance (mL/min/kg)
All answers are understood in mL/min/kg, so give the number only.

Given item `O=C1C(NCc2ccccc2)=CC2=NCCc3c[nH]c1c32` , the value recorded as its clearance is 117

###

assay: Pharmacokinetics and tissue distribution in nude mice; assay type: in vivo; conditions: female, nude (nu/nu), mouse, lungs, IV 5 mg/kg
quantity_kind: Cmax (ng/mL)
All answers are understood in ng/mL, so give the number only.

Given item `O=C1C(NCc2ccccc2)=CC2=NCCc3c[nH]c1c32` , the value recorded as its Cmax is 18400

###

experiment: Pharmacokinetics and tissue distribution in nude mice; type: in vivo; conditions: female, nude (nu/nu), mouse, heart, IP 10 mg/kg
quantity_kind: AUC (ng·h/mL)
All answers are understood in ng·h/mL, so give the number only.

Given item O=C1C(NCc2ccccc2)=CC2=NCCc3c[nH]c1c32 [BA-TPQ] , the value recorded as its AUC is 7630

###

experiment: Pharmacokinetics and tissue distribution in nude mice; assay type: in vivo; conditions: female, nude (nu/nu), mouse, liver, IV 5 mg/kg
quantity_kind: Cmax (ng/mL)
All answers are understood in ng/mL, so give the number only.

Given item O=C1C(NCc2ccccc2)=CC2=NCCc3c[nH]c1c32 [BA-TPQ] , the value recorded as its Cmax is 2710

###

assay: Pharmacokinetics and tissue distribution in CD-1 mice; assay type: in vivo; settings: female, mouse, heart, IV 5 mg/kg
quantity_kind: clearance (mL/min/kg)
All answers are understood in mL/min/kg, so give the number only.

Given item O=C1C(NCc2ccccc2)=CC2=NCCc3c[nH]c1c32 [BA-TPQ] , the value recorded as its clearance is 567

###

test: Pharmacokinetics and tissue distribution in CD-1 mice; type: in vivo; conditions: female, mouse, brain, IP 10 mg/kg
quantity_kind: half-life (min)
All answers are understood in min, so give the number only.

Given item O=C1C(NCc2ccccc2)=CC2=NCCc3c[nH]c1c32 [BA-TPQ] , the value recorded as its half-life is 49.8

###

Experiment: Pharmacokinetics and tissue distribution in nude mice
Format: in vivo
Settings: female, nude (nu/nu), mouse, plasma, IV 5 mg/kg
Protocol: Female ICR/CD-1 (18–20 g) mice were purchased from Harlan Laboratories (Indianapolis, IN), and female nude mice (nu/nu; 4–6 weeks) were purchased from Frederick Cancer Research and Development Center (Frederick, MD). […] CD-1 and nude mice were randomly divided into groups of three, and were dosed either intravenously (5 mg/kg) or intraperitoneally (10 mg/kg) with BA-TPQ in PEG 400:ethanol:0.9% saline (57.1%:14.3%:28.6%). […] The total urine was determined as the amount from the urine plus washes 1 and 2. […]
quantity_kind: half-life (min)
All answers are understood in min, so give the number only.

Given item O=C1C(NCc2ccccc2)=CC2=NCCc3c[nH]c1c32 [BA-TPQ] , the value recorded as its half-life is 10.2
